Catalogue of pIC50 readings, one per entry.
# subject_of_test: PBP3 (Pseudomonas aeruginosa)
# Sequence (G3XD46 whole entry): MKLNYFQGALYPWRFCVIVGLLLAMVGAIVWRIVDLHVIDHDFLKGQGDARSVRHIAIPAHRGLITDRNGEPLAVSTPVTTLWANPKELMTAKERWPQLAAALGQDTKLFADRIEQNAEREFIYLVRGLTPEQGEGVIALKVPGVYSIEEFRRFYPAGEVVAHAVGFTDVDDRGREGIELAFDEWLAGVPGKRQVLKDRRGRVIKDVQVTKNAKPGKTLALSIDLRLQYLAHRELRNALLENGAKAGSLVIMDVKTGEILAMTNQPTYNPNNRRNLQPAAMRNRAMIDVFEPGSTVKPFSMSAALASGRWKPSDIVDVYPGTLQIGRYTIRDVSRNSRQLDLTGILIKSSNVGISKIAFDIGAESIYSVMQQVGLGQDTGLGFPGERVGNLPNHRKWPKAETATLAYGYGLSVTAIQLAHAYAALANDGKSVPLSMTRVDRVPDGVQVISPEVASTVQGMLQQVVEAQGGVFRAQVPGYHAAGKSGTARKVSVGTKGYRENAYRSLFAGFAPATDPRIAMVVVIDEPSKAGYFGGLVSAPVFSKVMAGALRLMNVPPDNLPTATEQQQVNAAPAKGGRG
# procedure_summary: biochemical
# Design: gene ftsI; native protein in lysed PAO1; species or system Pseudomonas aeruginosa PAO1; Bocillin FL labelling competition of PBPs in lysed P. aeruginosa PAO1
# Text: Abstract Objectives The main objective of the present work was to dissect the interplay between penicillin-binding protein (PBP) occupancy, ampC transcriptional dynamics, and β-lactamase activity in Pseudomonas aeruginosa. Methods Using wild-type PAO1 and isogenic LMW-PBP knockout mutants (PAOΔdacB, PAOΔdacBdacC, and PAOΔdacBdacCpbpG), we assessed ampC induction following exposure to 18 β-lactams and β-lactamase inhibitors. PBP binding (IC50) was quantified via Bocillin-FL labelling. […]
# pIC50 is unitless: minus log10 of the molar concentration; print number only

Worked examples follow.
C[C@@H](O)[C@H]1C(=O)N2C(C(=O)O)=C(S[C@@H]3CN[C@H](C(=O)Nc4cccc(C(=O)O)c4)C3)[C@H](C)[C@H]12 6.40
CCN1CCN(C(=O)N[C@@H](C(=O)N[C@@H]2C(=O)N3[C@@H]2SC(C)(C)[C@@H]3C(=O)O)c2ccccc2)C(=O)C1=O 7.01
C[C@H]1[C@H](NC(=O)/C(=N\OC(C)(C)C(=O)O)c2csc(N)n2)C(=O)N1S(=O)(=O)O 6.74

Name the reported pIC50 value associated with the compound CC(C)(O/N=C(\C(=O)N[C@@H]1C(=O)N2C(C(=O)[O-])=C(C[n+]3ccccc3)CS[C@H]12)c1csc(N)n1)C(=O)O
6.96

Please do the same for C[C@@H](O)[C@H]1C(=O)N2C(C(=O)O)=C(S[C@@H]3CN[C@H](CNS(N)(=O)=O)C3)[C@H](C)[C@H]12 as well.
6.51

###

# subject_of_test: PBP5 (Pseudomonas aeruginosa)
# Construct: gene dacC; native full-length protein in intact P. aeruginosa PAO1 cells, Bocillin-FL labelled
# procedure_summary: Bocillin-FL competition in whole cells
# Type: cell-based
# assay_context: read-out: Drug mg/L^a / CAR / TZB; intact PAO1 cells, 30 min incubation; covalent
In this section we review reported pIC50 values for a set of compounds.
Hey, just a heads up that pIC50 is the negative log base 10 of the concentration in molar.

compound	subject_of_test	data_value
C[C@]1(Cn2ccnn2)[C@H](C(=O)O)N2C(=O)C[C@H]2S1(=O)=O [tazobactam]	PBP5 (Pseudomonas aeruginosa)	4.80

Look up pIC50 for this compound: CC1(C)S[C@@H]2[C@H](NC(=O)C(C(=O)O)c3ccccc3)C(=O)N2[C@H]1C(=O)O (some centres unmarked) [carbenicillin]
3.89

###

# subject_of_test: PBP4 (Pseudomonas aeruginosa)
# Construct: gene PA3047; native full-length protein in intact P. aeruginosa PAO1 cells, Bocillin-FL labelled
# Sequence (Q9HZG1 entry or part of it): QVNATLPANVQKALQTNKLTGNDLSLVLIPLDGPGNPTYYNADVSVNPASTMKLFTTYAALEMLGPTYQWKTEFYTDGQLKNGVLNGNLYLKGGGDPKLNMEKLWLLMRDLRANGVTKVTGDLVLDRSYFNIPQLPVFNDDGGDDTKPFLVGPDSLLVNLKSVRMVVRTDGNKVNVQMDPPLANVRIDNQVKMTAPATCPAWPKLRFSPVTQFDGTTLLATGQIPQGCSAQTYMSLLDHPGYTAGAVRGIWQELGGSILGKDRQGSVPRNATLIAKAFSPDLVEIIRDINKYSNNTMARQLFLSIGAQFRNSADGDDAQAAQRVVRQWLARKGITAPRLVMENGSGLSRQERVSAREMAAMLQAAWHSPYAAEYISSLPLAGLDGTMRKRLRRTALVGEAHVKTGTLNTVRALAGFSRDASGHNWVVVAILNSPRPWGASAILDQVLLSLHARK
# procedure_summary: Bocillin-FL competition in whole cells
# Assay type: cell-based
# assay_context: read-out: Drug mg/L^a / MEC / SUL; intact PAO1 cells, 30 min incubation; covalent
# Description: Bocillin-FL competition in whole cells on PBP4
Quick reference: IC50 of the listed items.
Form entry: value (µM) — number only.

CC1(C)[C@H](C(=O)O)N2C(=O)C[C@H]2S1(=O)=O 12.4

Now take the following compound into account.
Quick check: IC50 of CC1(C)S[C@@H]2[C@H](N=CN3CCCCCC3)C(=O)N2[C@H]1C(=O)O ?
648

###

# subject_of_test: PBP2 (Pseudomonas aeruginosa, UniProt G3XCV7)
# Construct: gene pbpA; native full-length protein in intact P. aeruginosa PAO1 cells, Bocillin-FL labelled
# procedure_summary: Bocillin-FL competition in whole cells
# Type: cell-based
# assay_context: read-out: Drug mg/L^a / CAR / TZB; intact PAO1 cells, 30 min incubation; covalent
Reported IC50 values for a set of molecules
Reply numerically in µM, unit not repeated.

molecule	IC50 / µM
C[C@]1(Cn2ccnn2)[C@H](C(=O)O)N2C(=O)C[C@H]2S1(=O)=O	11.9

Okay, next one:
GET /values?readout=IC50&item= CC1(C)S[C@@H]2[C@H](NC(=O)C(C(=O)O)c3ccccc3)C(=O)N2[C@H]1C(=O)O (some centres unmarked)
85.4

###

# subject_of_test: PBP5 (Pseudomonas aeruginosa)
# Construct: gene dacC; native full-length protein in intact P. aeruginosa PAO1 cells, Bocillin-FL labelled
# procedure_summary: Bocillin-FL competition in whole cells
# Format: cell-based
# assay_context: read-out: Drug mg/L^a / PIP / CLV; intact PAO1 cells, 30 min incubation; covalent
metric_name: pIC50
# pIC50 = -log10(concentration in molar units)

compound	pIC50
CCN1CCN(C(=O)N[C@@H](C(=O)N[C@@H]2C(=O)N3[C@@H]2SC(C)(C)[C@@H]3C(=O)O)c2ccccc2)C(=O)C1=O [piperacillin]	5.22

Here is the next item to consider.
For the compound shown here, O=C(O)[C@H]1/C(=C/CO)O[C@@H]2CC(=O)N21 [clavulanic acid] , give the reported pIC50.
4.74

###

# subject_of_test: PBP3 (Pseudomonas aeruginosa)
# procedure_summary: Bocillin-FL competition in whole cells
# Type: cell-based
# Design: gene ftsI; native full-length protein in intact P. aeruginosa PAO1 cells, Bocillin-FL labelled
# assay_context: read-out: Drug mg/L^a / TIC / REL; intact PAO1 cells, 30 min incubation; covalent
metric_name: pIC50
In textbook form, pIC50 equals minus log to base ten of the concentration in mol/L.

molecule	subject_of_test	pIC50
CC1(C)S[C@@H]2[C@H](NC(=O)[C@H](C(=O)O)c3ccsc3)C(=O)N2[C@H]1C(=O)O [ticarcillin]	PBP3 (Pseudomonas aeruginosa)	5.19

Then this molecule:
Would you mind telling me what pIC50 value was observed for O=C(NC1CCNCC1)[C@@H]1CC[C@@H]2CN1C(=O)N2OS(=O)(=O)O [relebactam] ?
4.91

###

# subject_of_test: PBP3 (Pseudomonas aeruginosa)
# procedure_summary: Bocillin-FL competition in whole cells
# Type: cell-based
# Design: gene ftsI; native full-length protein in intact P. aeruginosa PAO1 cells, Bocillin-FL labelled
# assay_context: read-out: Drug mg/L^a / ETP / CAZ; intact PAO1 cells, 30 min incubation; covalent
metric_name: IC50 (nM)
Enter your answer as a number in nM; do not include the unit.

C[C@@H](O)[C@H]1C(=O)N2C(C(=O)O)=C(S[C@@H]3CN[C@H](C(=O)Nc4cccc(C(=O)O)c4)C3)[C@H](C)[C@H]12 1140

// map CC(C)(O/N=C(\C(=O)N[C@@H]1C(=O)N2C(C(=O)[O-])=C(C[n+]3ccccc3)CS[C@H]12)c1csc(N)n1)C(=O)O to recorded IC50 (system: PBP3 (Pseudomonas aeruginosa))
567

###

Items are presented alongside their recorded IC50.
# subject_of_test: PBP5 (Pseudomonas aeruginosa)
# Construct: gene dacC; native full-length protein in intact P. aeruginosa PAO1 cells, Bocillin-FL labelled
# procedure_summary: Bocillin-FL competition in whole cells
# Assay type: cell-based
# assay_context: read-out: Drug mg/L^a / MEC / SUL; intact PAO1 cells, 30 min incubation; covalent
Kindly write the number and append the unit.

CC1(C)S[C@@H]2[C@H](N=CN3CCCCCC3)C(=O)N2[C@H]1C(=O)O 1300 µM

Now look at this entry.
Report IC50 for CC1(C)[C@H](C(=O)O)N2C(=O)C[C@H]2S1(=O)=O please.
8.96 µM

###

# subject_of_test: PBP5 (Pseudomonas aeruginosa, UniProt G3XD74)
# Construct: gene dacC; native full-length protein in intact P. aeruginosa PAO1 cells, Bocillin-FL labelled
# Sequence (G3XD74 entry or part of it): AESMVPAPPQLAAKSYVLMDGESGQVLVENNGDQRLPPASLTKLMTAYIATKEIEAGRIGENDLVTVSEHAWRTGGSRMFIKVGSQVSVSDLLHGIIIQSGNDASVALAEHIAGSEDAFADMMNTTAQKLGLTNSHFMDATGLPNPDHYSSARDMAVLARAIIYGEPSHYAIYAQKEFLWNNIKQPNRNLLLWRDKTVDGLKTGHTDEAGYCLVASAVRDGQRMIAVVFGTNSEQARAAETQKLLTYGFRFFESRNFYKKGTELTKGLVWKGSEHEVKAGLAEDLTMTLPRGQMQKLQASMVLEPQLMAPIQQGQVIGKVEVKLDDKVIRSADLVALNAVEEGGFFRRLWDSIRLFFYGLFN
# procedure_summary: Bocillin-FL competition in whole cells
# Type: cell-based
# assay_context: read-out: Drug mg/L^a / ETP / CAZ; intact PAO1 cells, 30 min incubation; covalent
metric_name: IC50 (nM)
Unit nM implied. Number only.

Fill in the blank: the reported IC50 of C[C@@H](O)[C@H]1C(=O)N2C(C(=O)O)=C(S[C@@H]3CN[C@H](C(=O)Nc4cccc(C(=O)O)c4)C3)[C@H](C)[C@H]12 is ____.
1700

###

# subject_of_test: PBP2 (Pseudomonas aeruginosa)
# Construct: gene pbpA; native full-length protein in intact P. aeruginosa PAO1 cells, Bocillin-FL labelled
# Sequence (G3XCV7 1-646): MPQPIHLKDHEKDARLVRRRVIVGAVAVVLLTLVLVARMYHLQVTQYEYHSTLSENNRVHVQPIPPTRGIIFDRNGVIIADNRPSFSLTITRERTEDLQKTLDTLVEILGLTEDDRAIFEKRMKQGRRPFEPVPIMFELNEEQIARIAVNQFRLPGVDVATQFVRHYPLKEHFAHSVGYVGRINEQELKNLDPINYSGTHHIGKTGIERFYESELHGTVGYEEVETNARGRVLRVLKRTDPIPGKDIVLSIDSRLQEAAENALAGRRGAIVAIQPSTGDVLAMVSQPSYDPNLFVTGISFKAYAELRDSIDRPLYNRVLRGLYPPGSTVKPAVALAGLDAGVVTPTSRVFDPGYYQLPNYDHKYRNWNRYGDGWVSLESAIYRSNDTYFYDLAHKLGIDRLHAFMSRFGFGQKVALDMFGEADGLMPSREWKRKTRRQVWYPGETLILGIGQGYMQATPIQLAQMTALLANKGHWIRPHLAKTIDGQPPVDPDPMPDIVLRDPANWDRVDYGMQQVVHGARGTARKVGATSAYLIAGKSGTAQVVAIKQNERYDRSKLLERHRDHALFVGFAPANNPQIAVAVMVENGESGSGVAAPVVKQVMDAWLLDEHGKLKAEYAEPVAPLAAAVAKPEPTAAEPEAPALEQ
# procedure_summary: Bocillin-FL competition in whole cells
# Assay type: cell-based
# assay_context: read-out: Drug mg/L^a / PIP / CLV; intact PAO1 cells, 30 min incubation; covalent
In this section, each of the molecules is paired with its reported IC50.
Answer as a quantity: numeral, then unit.

O=C(O)[C@H]1/C(=C/CO)O[C@@H]2CC(=O)N21 56.2 µM

// next entry
Dear colleague, I am looking for the recorded IC50 of the following molecule: CCN1CCN(C(=O)N[C@@H](C(=O)N[C@@H]2C(=O)N3[C@@H]2SC(C)(C)[C@@H]3C(=O)O)c2ccccc2)C(=O)C1=O
4.21 µM
